# target-or-system: human ER Alpha ligand-binding domain (LBD) (Homo sapiens)
# Sequence (P03372 311-547 limits assumed): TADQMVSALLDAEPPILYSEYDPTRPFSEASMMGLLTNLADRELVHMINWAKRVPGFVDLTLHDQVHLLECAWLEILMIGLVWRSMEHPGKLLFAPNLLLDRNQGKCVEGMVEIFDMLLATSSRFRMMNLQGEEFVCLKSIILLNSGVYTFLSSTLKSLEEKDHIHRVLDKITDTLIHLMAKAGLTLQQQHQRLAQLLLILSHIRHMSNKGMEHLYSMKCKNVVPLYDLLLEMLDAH
test-readout: pIC50
Lab note — pIC50 values are minus log10 of concentrations in M.

Given the compound OC[C@H]1CC[C@H](c2ccc(O)cc2)CC1 , write its reported pIC50. 6.54

###

# target-or-system: ERα (Homo sapiens, UniProt P03372)
# Construct: employs a full length and native ER (comprised of an ER LBD and an ER DBD)
# Sequence (P03372 1-595): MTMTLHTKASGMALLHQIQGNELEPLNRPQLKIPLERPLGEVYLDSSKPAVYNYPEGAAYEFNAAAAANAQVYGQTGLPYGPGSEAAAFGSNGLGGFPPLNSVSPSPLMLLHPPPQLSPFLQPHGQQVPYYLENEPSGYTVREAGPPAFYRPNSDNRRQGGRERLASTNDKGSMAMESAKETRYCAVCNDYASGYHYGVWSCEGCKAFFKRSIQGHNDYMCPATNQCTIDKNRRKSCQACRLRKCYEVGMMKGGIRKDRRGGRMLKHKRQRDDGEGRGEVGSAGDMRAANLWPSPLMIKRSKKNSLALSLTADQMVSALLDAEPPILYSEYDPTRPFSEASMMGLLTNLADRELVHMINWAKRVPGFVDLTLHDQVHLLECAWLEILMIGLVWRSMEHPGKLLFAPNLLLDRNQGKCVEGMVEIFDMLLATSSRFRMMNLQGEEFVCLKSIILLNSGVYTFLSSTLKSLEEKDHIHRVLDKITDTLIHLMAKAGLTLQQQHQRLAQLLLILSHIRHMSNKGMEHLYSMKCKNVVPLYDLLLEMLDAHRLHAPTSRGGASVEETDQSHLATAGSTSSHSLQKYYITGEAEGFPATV
# test-details: Cell-based luciferase reporter assay, full length ERα, antagonist mode
test-readout: IC50

Indicate its recorded IC50; the compound in question is OCC1CCC(c2ccc(O)cc2)CC1 (stereo not shown) [15:16 (3:2), 4-(4-(Hydroxymethyl)cyclohexyl) phenol] > 10 µM

###

// reported pIC50 for each item listed
# target-or-system: human ER Beta ligand-binding domain (LBD) (Homo sapiens, UniProt Q92731)
# Construct: purchased Thermo Fisher Scientific
# Sequence (Q92731 264-498 limits assumed): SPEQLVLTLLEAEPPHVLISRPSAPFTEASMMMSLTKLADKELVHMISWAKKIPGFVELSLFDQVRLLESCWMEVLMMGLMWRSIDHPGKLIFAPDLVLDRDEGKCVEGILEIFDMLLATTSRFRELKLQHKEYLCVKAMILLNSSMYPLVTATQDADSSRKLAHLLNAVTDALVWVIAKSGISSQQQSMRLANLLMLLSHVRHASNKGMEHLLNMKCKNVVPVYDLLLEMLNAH
# test-details: TR-FRET competitive binding assay, ERβ LBD
# condition-details: displacement of fluorescent tracer from ERβ LBD
Answer as the number alone; pIC50 is minus log10 of concentration in mol/L.

Worked examples, 5 compounds total:
compound | test-readout | value-reported
C=C1CCC(c2ccc(O)c(/C=N/O)c2)CC1 | pIC50 | 6.65
ON=C1CCC(c2ccc(O)cc2)CC1 (centres unmarked) [Compound 4, 4-(4-Hydroxyphenyl) cyclohexanone oxime] | pIC50 | 5.80
Oc1ccc([C@]23CC[C@H](CC2)CO3)cc1 | pIC50 | 6.60
OCC=C1CCC(c2ccc(O)cc2)CC1 (centres unmarked) | pIC50 | 6.17
OCC1(O)CCC(c2ccc(O)cc2)CC1 (single isomer, unassigned) | pIC50 | 5.57

# return recorded pIC50 for entry C=C1CCC(c2ccc(O)c(C=O)c2)CC1 6.00

// Input: C[C@]1(O)CC[C@@H](c2ccc(O)cc2)CC1 [Compound 3, 4-(4-Hydroxy-4-methylcyclohexyl) phenol] . Output its pIC50 only. 5.20

Supply reported pIC50 belonging to this compound: O=C1CCC(c2ccc(O)cc2)CC1 [Compound 1, 4-(4-hydroxyphenyl) cyclohexanone] 4.72
